Recorded microsomal CLint at 1 uM by entry
- experiment summary: Metabolic stability in human hepatic microsome
- Assay type: in vitro ADME
- assay conditions: microsomes, pH 7.4; human hepatic microsome, NADPH(+); read-out: CL NADPH(+)
Starred links: 1 amine or outer side, 2 acyl side, 3 side chain; linkers in the order of their positions; H or OH if unused. Positions of bridges follow the written chain, without caps; N, C: chain ends. Non-standard residues stand in square brackets, D forms with d. Residues, ends and D or L forms follow the SMILES beside them. *: point of attachment. NMeF = CN[C@@H](Cc1ccccc1)C(=O)O; NMeβAla = CN(CCC(=O)[*:2])[*:1]; NMeL = CN[C@@H](CC(C)C)C(=O)O; NMeV = CN[C@H](C(=O)O)C(C)C; NMeA = CN[C@@H](C)C(=O)O; Piperidide = C1CCN(*)CC1
API: value field is a number in µL/min/mg; no unit string.

CC(C)C[C@@H]1NC(=O)[C@H](Cc2ccccc2)N(C)C(=O)[C@H]([C@@H](C)O)NC(=O)[C@H](Cc2ccccc2)N(C)C(=O)[C@H](C)N(C)C(=O)[C@H](C)NC(=O)C[C@@H](C(=O)N2CCCCC2)NC1=O [DP-539] (A[NMeA][NMeF]T[NMeF]LD-Piperidide; lactam N-7)    260

Per the record, CC(C)C[C@H]1C(=O)N(C)[C@@H](C)C(=O)N[C@@H](C)C(=O)N[C@H](C(=O)N2CCCCC2)CC(=O)N(C)CCC(=O)N(C)[C@@H](Cc2ccccc2)C(=O)N(C)[C@@H](C)C(=O)N[C@@H]([C@@H](C)O)C(=O)N(C)[C@@H](C)C(=O)N[C@@H](Cc2ccccc2)C(=O)N(C)[C@@H](C(C)C)C(=O)N1C [DP-326] ([NMeβAla][NMeF][NMeA]T[NMeA]F[NMeV][NMeL][NMeA]AD-Piperidide; lactam N-11) has microsomal CLint at 1 uM of 15

For this compound ( CC(C)C[C@@H]1NC(=O)[C@@H](C)NC(=O)C[C@@H](C(=O)N2CCCCC2)NC(=O)[C@H](CC(C)C)N(C)C(=O)[C@H](C)N(C)C(=O)[C@H](CC(C)C)N(C)C(=O)[C@H](CC(C)C)N(C)C(=O)[C@H](Cc2ccccc2)N(C)C(=O)[C@H](C)NC(=O)[C@H](Cc2ccccc2)N(C)C(=O)[C@H]([C@@H](C)O)NC1=O [DP-139] ([dA]LT[NMeF]A[NMeF][NMeL][NMeL][NMeA][NMeL]D-Piperidide; lactam N-11) ), measured microsomal CLint at 1 uM is 22

----------
- experiment summary: PAMPA (parallel artificial membrane permeability assay)
- Type: in vitro ADME
- assay conditions: PAMPA; membrane permeation rate (Pe); 50 mM MOPSO buffer pH 6.5 with 5.0% glycocholic acid, 37° C., 18 hours; read-out: iPAMPA Pe
Starred links: 1 amine or outer side, 2 acyl side, 3 side chain; linkers in the order of their positions; H or OH if unused. Positions of bridges follow the written chain, without caps; N, C: chain ends. Non-standard residues stand in square brackets, D forms with d. Residues, ends and D or L forms follow the SMILES beside them. *: point of attachment. Phe(3-(CH2)4CO) = O=C([C@H](Cc1cccc(CCCCC(=O)[*:3])c1)N[*:1])[*:2]; X2 = O=C(C[C@H](N[*:1])C(F)(F)F)[*:2]; hhPhe = N[C@@H](CCCc1ccccc1)C(=O)O; NMeF = CN[C@@H](Cc1ccccc1)C(=O)O; NMeGABA = CN(CCCC(=O)[*:2])[*:1]; NMeβAla = CN(CCC(=O)[*:2])[*:1]; NMeL = CN[C@@H](CC(C)C)C(=O)O; NMeV = CN[C@H](C(=O)O)C(C)C; NMeS = CN[C@@H](CO)C(=O)O; NMeA = CN[C@@H](C)C(=O)O; Piperidide = C1CCN(*)CC1; dNMeA = CN[C@H](C)C(=O)O; β3hA = C[C@H](N)CC(=O)O; Sar = CNCC(=O)O; tBu = CC(C)(C)*
Entries annotated with measured Papp at 18 hours, 50 µM
The reply should be a number in ×10⁻⁶ cm/s, with the unit left off.

Here is how some compounds turned out for Papp at 18 hours, 50 µM.
CC(C)C[C@@H]1NC(=O)[C@H](C(C)C)N(C)C(=O)[C@H](CCCc2ccccc2)NC(=O)CN(C)C(=O)[C@H]([C@@H](C)O)NC(=O)[C@H](C)N(C)C(=O)[C@H](CC(C)C)N(C)C(=O)[C@@H](C(C)C)NC(=O)C[C@@H](C(=O)N2CCCCC2)NC(=O)[C@H](C)NC(=O)[C@H](CC(C)C)N(C)C1=O [DP-737] ([dV][NMeL][NMeA]T[Sar][hhPhe][NMeV]L[NMeL]AD-Piperidide; lactam N-11)    30
CC[C@H](C)[C@@H]1NC(=O)[C@H](CC(C)C)N(C)C(=O)[C@H](Cc2ccccc2)N(C)C(=O)CCCCc2cccc(c2)C[C@@H](C(=O)N2CCCCC2)NC(=O)[C@H](CC(C)C)N(C)C(=O)[C@H](C)N(C)C(=O)[C@H]([C@@H](C)O)NC(=O)[C@H](Cc2ccccc2)N(C)C(=O)[C@H](C)N(C)C1=O [DP-836] ([NMeF][NMeL]I[NMeA][NMeF]T[NMeA][NMeL][Phe(3-(CH2)4CO)]-Piperidide; lactam N-9)    18
CC[C@H](C)[C@@H]1NC(=O)[C@H](C)N(C)C(=O)[C@H](CC(C)C)N(C)C(=O)CN(C)C(=O)[C@H]([C@@H](C)O)NC(=O)[C@H](C(C)C)N(C)C(=O)[C@H](C)N(C)C(=O)[C@H](Cc2ccccc2)NC(=O)[C@@H](C)NC(=O)C[C@@H](C(=O)N(C)[C@@H](Cc2ccccc2)C(=O)N(C)[C@@H](Cc2ccccc2)C(=O)N[C@@H](C)C(=O)N2CCCCC2)NC1=O [DP-502] ([dA]F[NMeA][NMeV]T[Sar][NMeL][NMeA]ID[NMeF][NMeF]A-Piperidide; lactam N-10)    17

Consider CC(C)C[C@H]1C(=O)N[C@@H]([C@@H](C)O)C(=O)N(C)[C@@H](C)C(=O)N[C@H](C(=O)N2CCCCC2)CC(=O)N(C)[C@@H](C)C(=O)N[C@@H](C)C(=O)N(C)[C@@H](Cc2ccccc2)C(=O)N(C)[C@@H](CC(C)C)C(=O)N[C@@H](Cc2ccccc2)C(=O)N1C [DP-150] ([NMeA]A[NMeF][NMeL]F[NMeL]T[NMeA]D-Piperidide; lactam N-9) . Its measured Papp at 18 hours, 50 µM is 33

For CC[C@H](C)[C@@H]1NC(=O)[C@@H]2CCCN2C(=O)[C@H](CC(C)C)N(C)C(=O)[C@H](Cc2ccccc2)NC(=O)CCCN(C)C(=O)C[C@@H](C(=O)N(C)[C@@H](Cc2ccccc2)C(=O)N[C@@H](C)C(=O)N2CCCCC2)NC(=O)[C@H]([C@@H](C)O)NC(=O)[C@H](CC(C)C)NC(=O)[C@H](Cc2ccccc2)N(C)C(=O)CNC(=O)[C@H](CC(C)C)N(C)C1=O [DP-364] ([NMeGABA]F[NMeL]PI[NMeL]G[NMeF]LTD[NMeF]A-Piperidide; lactam N-11) the compound record lists Papp at 18 hours, 50 µM as 28

Record CC(C)C[C@@H]1NC(=O)C[C@@H](C(=O)N2CCCCC2)NC(=O)[C@H](COC(C)(C)C)NC(=O)[C@H]([C@@H](C)O)NC(=O)[C@H](Cc2ccccc2)N(C)C(=O)[C@H](CC(C)C)N(C)C(=O)CN(C)C1=O [DP-718] (L[Sar][NMeL][NMeF]TS(tBu)D-Piperidide; lactam N-7) . Reported Papp at 18 hours, 50 µM: 17

compound CC(C)C[C@@H]1NC(=O)[C@H](CO)N(C)C(=O)C[C@@H](C(F)(F)F)NC(=O)[C@H](CC(C)C)N(C)C(=O)[C@H](CC(C)C)N(C)C(=O)[C@@H](C)NC(=O)[C@H](C)NC(=O)[C@H](CC(C)C)N(C)C(=O)[C@H](CC(C)C)NC(=O)[C@H](CC(C)C)N(C)C(=O)CN(C)C1=O [DP-657] (cyclo(A[dA][NMeL][NMeL][X2][NMeS]L[Sar][NMeL]L[NMeL])) , Papp at 18 hours, 50 µM observed: 24

Recorded Papp at 18 hours, 50 µM (compound CC[C@H](C)[C@@H]1NC(=O)[C@H](CC(C)C)N(C)C(=O)[C@H](C)NC(=O)CN(C)C(=O)[C@H](CC(C)C)NC(=O)[C@H]([C@@H](C)O)NC(=O)[C@H](CC(C)C)N(C)C(=O)CCN(C)C(=O)C[C@H](C)NC(=O)[C@H](CC(C)C)N(C)C(=O)[C@H](CC(C)C)N(C)C1=O [DP-806] (cyclo(A[NMeL]I[NMeL][NMeL][β3hA][NMeβAla][NMeL]TL[Sar])) ): 27

// CC(C)C[C@H]1C(=O)N[C@@H](COC(C)(C)C)C(=O)N[C@H](C(=O)N2CCCCC2)CC(=O)N(C)[C@@H](C)C(=O)N(C)[C@@H](Cc2ccccc2)C(=O)N(C)[C@@H](CC(C)C)C(=O)N[C@@H]([C@@H](C)O)C(=O)N(C)[C@@H](C)C(=O)N1C [DP-707] ([NMeA][NMeF][NMeL]T[NMeA][NMeL]S(tBu)D-Piperidide; lactam N-8) : Papp at 18 hours, 50 µM value = 29

Input CC(C)C[C@H]1C(=O)N(C)[C@@H](C)C(=O)N[C@@H]([C@@H](C)O)C(=O)N(C)[C@@H](C)C(=O)N(C)[C@@H](CC(C)C)C(=O)N(C)[C@@H](Cc2ccccc2)C(=O)N[C@H](C(=O)N2CCCCC2)CC(=O)N(C)[C@H](C)C(=O)N(C)[C@@H](C)C(=O)N[C@@H](C)C(=O)N(C)[C@@H](C)C(=O)N1C [DP-476] ([dNMeA][NMeA]A[NMeA][NMeL][NMeA]T[NMeA][NMeL][NMeF]D-Piperidide; lactam N-11) . Output Papp at 18 hours, 50 µM: 2.8

Every entry's value here was drawn from patent US9409952B2.
